Where do these numbers come from? They come from ChEMBL document CHEMBL1125965.

Molecular target: Thromboxane A2 receptor (Rattus norvegicus)
Sequence (P34978 whole entry): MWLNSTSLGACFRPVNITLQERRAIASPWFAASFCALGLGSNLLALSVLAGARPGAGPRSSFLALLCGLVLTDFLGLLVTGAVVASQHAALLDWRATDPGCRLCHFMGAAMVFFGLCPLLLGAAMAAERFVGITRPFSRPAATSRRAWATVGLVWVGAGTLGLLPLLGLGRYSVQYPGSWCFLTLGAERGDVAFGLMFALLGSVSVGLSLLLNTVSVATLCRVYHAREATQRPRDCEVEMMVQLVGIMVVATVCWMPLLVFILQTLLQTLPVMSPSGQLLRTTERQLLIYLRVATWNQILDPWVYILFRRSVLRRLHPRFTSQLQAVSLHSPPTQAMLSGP
Assay: In vitro thromboxane A2 receptor antagonism through inhibition of U-46619-induced contraction of rat isolated thoracic aortic strip
Format: functional
Conditions: read-out: pA2 (converted)
readout.name: Kb (nM)

The examples below pair each entry with its known result.
O=C(O)CC/C=C\CO[C@H]1C(OCc2ccc(-c3ccccc3CCO)cc2)CC[C@@H]1N1CCCCCC1 (some centres undefined)
31.6
O=C(O)CC/C=C\CO[C@H]1C(OCc2ccc(-c3cccc(CO)c3)cc2)CC[C@@H]1N1CCCCCC1 (some centres undefined)
12.6

1: O=C(O)CC/C=C\CO[C@@H]1C(OCc2ccc(-c3ccccc3)cc2)CC[C@@H]1N1CCCCC1 (some centres undefined)
2: CS(=O)(=O)Nc1cccc(-c2ccc(COC3CC[C@H](N4CCCCCC4)[C@H]3OC/C=C\CCC(=O)O)cc2)c1 (some centres undefined)
3: NC(=O)Cc1ccccc1-c1ccc(COC2CC[C@H](N3CCCCCC3)[C@H]2OC/C=C\CCC(=O)O)cc1 (some centres undefined)
Write the entries in order, lowest recorded Kb first. Please express your ranking as an ordered list of the labels.
1, 2, 3

I: NC(=O)c1ccc(-c2ccc(COC3CC[C@H](N4CCCCCC4)[C@H]3OC/C=C\CCC(=O)O)cc2)cc1 (some centres undefined)
II: O=C(O)CC/C=C\CO[C@H]1C(OCc2ccc(-c3ccc(O)cc3)cc2)CC[C@@H]1N1CCCCCC1 (some centres undefined)
// which entry reports the smaller Kb, I or II ? Write down the label of the entry you select.
II
